Source listed as patent US8163756B2.

TARGET SYSTEM: B-Raf(V599E) kinase (Homo sapiens, UniProt P15056, V600E)
Sequence (P15056 with tags, fused parts or gaps V600E): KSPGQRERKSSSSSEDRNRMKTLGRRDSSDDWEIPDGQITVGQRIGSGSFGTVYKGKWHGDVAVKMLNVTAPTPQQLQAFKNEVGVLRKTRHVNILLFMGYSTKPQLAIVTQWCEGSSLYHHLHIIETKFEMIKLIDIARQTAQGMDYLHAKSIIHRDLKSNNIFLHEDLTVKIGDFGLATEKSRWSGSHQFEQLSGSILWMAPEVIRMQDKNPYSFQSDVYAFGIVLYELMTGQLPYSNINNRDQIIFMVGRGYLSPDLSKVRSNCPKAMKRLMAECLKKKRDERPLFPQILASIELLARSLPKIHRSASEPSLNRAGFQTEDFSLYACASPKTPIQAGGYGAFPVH
TEST PROTOCOL: B-Raf(V599E) kinase assay B1 (construct 1, MEK1 substrate, coupled spectrophotometric)
Format: biochemical
Method: The test compounds were incubated with the reaction mixtureat 30° C. for 2 h. […] The reaction rate was calculated using the […] time frame. […] IC50 values were calculated from a series of percent inhibition values determined at a range of inhibitor concentrations using software routines as implemented in the GraphPad Prism software package.
VALUE KIND: pIC50
# pIC50 = -log10(concentration in molar units)

Give pIC50 (B-Raf(V599E) kinase (Homo sapiens, UniProt P15056, V600E)) of the following compound: CNC(=O)c1cc(Oc2ccc(NC(=O)Nc3cc(C(C)(C)C)nn3-c3ccc4[nH]c(=O)ccc4c3)cc2)ccn1
7.85

Query the reported pIC50 for B-Raf(V599E) kinase (Homo sapiens, UniProt P15056, V600E); item: CC(C)(C)c1cc(NC(=O)Nc2ccccc2F)n(-c2cccc(CC(N)=O)c2)n1
7.70

Lab note: need pIC50 with B-Raf(V599E) kinase (Homo sapiens, UniProt P15056, V600E) for entry CC(C)(C)c1cc(NC(=O)NC2CCCCC2)n(-c2ccc3c(c2)CCC(=O)N3)n1 , please look it up.
7.54

Give the reported pIC50 for CC(C)(C)c1cc(NC(=O)Nc2cc(F)cc(F)c2)n(-c2cc(CO)c3ccccc3c2)n1 (system: B-Raf(V599E) kinase (Homo sapiens, UniProt P15056, V600E)).
8.06
